Value source: ChEMBL document CHEMBL1138555

Reported GI50 is given for each of the following compounds.
tested on: 786-0; test: Growth inhibition of human 786-0 cells after 48 hrs by sulforhodamine B assay; assay type: functional; settings: 786-0, 48 h
Note: unit µM is implicit; provide only the numeric part.

// solved cases for GI50 follow
>  <cpd.smiles>
O=C(C(=CN1CCN(C(=O)c2ccco2)C1=S)C(=O)c1ccccc1)c1ccccc1

>  <GI50, µM>
8.2

$$$$
>  <cpd.smiles>
COC(=O)/C(C#N)=C/N1CCN(C(=O)c2ccco2)C1=S

>  <GI50, µM>
6.3

$$$$
>  <cpd.smiles>
COc1cc(C(=O)N2CCN(C=O)C2=S)cc(OC)c1OC

>  <GI50, µM>
12.7

$$$$
>  <cpd.smiles>
O=C(c1ccc(Cl)cc1Cl)N1CCN(C(=O)c2ccc(Cl)cc2Cl)C1=S

>  <GI50, µM>
18.6

$$$$
>  <cpd.smiles>
N#C/C(=C\N1CCN(C(=O)c2ccco2)C1=S)C(N)=O

>  <GI50, µM>
18

$$$$
>  <cpd.smiles>
COC(=O)/C(=C\N1CCN(C(=O)c2ccco2)C1=S)C(C)=O

>  <GI50, µM>
11.2

$$$$

Data request: Give the value of GI50 reported for the following: O=C(c1ccc(Cl)c(Cl)c1)N1CCN(C(=O)c2ccc(Cl)c(Cl)c2)C1=S
Data returned: 7.2
